# test.conditions: human gut metagenome, 24 h, 2 µM; further: call rule not given here
measured.parameter: Bacterial Biotransformation

compound: CCCCCCOC(=O)/N=C(/N)c1ccc(NCc2nc3cc(C(=O)N(CCC(=O)OCC)c4ccccn4)ccc3n2C)cc1.CS(=O)(=O)O [DABIGATRAN ETEXILATE MESYLATE]
observed.result: Compound NOT metabolized
--
compound: Cc1cn([C@H]2C[C@H](N=[N+]=[N-])[C@@H](CO)O2)c(=O)[nH]c1=O [ZIDOVUDINE]
observed.result: Compound NOT metabolized

###

# assay.details: The drug is tested on WLS-240 corresponding to human gut metagenome with ENA study accession number: PRJEB37062 and ENA sample accession number: ERS12561773 for biotransformation under anaerobic condition. The drug concentrations were measured over 9 timepoints collected between 0 and 24 hours of incubation by liquid-chromatography-coupled mass spectrometry (LC–MS)
# test.conditions: 2 µM
Where a SMILES comes first, the peptide text is derived from it. [ ]: non-standard residue; d: D form. pGlu = O=C1CC[C@@H](C(=O)O)N1; Thz = O=C(O)[C@@H]1CSCN1
measured.parameter: Bacterial Biotransformation

In the examples that follow, each entry is paired with its recorded Bacterial Biotransformation.
molecule: O=C1CC[C@@H](C(=O)N2CSC[C@H]2C(=O)O)N1 [PIDOTIMOD] ([pGlu]-[Thz]-OH)
Bacterial Biotransformation: Compound NOT metabolized

molecule: COc1c(C)c2c(c(O)c1C/C=C(\C)CCC(=O)OCCN1CCOCC1)C(=O)OC2 [MYCOPHENOLATE MOFETIL]
Bacterial Biotransformation: Compound metabolized

molecule: OCCOCCN1CCN(C2=Nc3ccccc3Sc3ccccc32)CC1
Bacterial Biotransformation: Compound metabolized

molecule: CNCCC(Oc1ccc(C(F)(F)F)cc1)c1ccccc1 (configuration not stated)
Bacterial Biotransformation: Compound metabolized

molecule: NS(=O)(=O)c1cc2c(cc1Cl)N=C(CSCc1ccccc1)NS2(=O)=O [BENZTHIAZIDE]
Bacterial Biotransformation: Compound NOT metabolized

molecule: CC[C@H](C)C(=O)O[C@H]1C[C@@H](C)C=C2C=C[C@H](C)[C@H](CC[C@@H]3C[C@@H](O)CC(=O)O3)[C@H]21
Bacterial Biotransformation: Compound NOT metabolized

molecule: C[C@@H]1CC[C@H]2[C@@H](C)C(=O)O[C@@H]3O[C@@]4(C)CC[C@@H]1[C@]32OO4
Bacterial Biotransformation: Compound metabolized

molecule: O=c1[nH]c2ccccc2n1C1CCN(CCCC(c2ccc(F)cc2)c2ccc(F)cc2)CC1 [PIMOZIDE]
Bacterial Biotransformation: Compound metabolized

Documented Bacterial Biotransformation of COc1ccc(CCN(C)CCCC(C#N)(c2ccc(OC)c(OC)c2)C(C)C)cc1OC (configuration not stated) : Compound metabolized

Documented Bacterial Biotransformation of O=C(NCc1ccccc1)OCCO [BURAMATE] : Compound NOT metabolized

Documented Bacterial Biotransformation of C=CCN1CC[C@]23c4c5ccc(O)c4O[C@H]2C(=O)CC[C@@]3(O)[C@H]1C5 : Compound NOT metabolized
